Tested on: UO-31 renal
procedure_summary: NCI tumour cell line growth inhibition, 48 h
reported_endpoint: TGI

| compound | subject_of_test | reported_endpoint | val |
| --- | --- | --- | --- |
| CN1CN(C2OC(CO)C(O)C2O)c2nc(N)[nH]c(=O)c21 (stereo not given) | UO-31 renal | TGI | > 100 µM |

## Input For the compound shown here, `COc1ccc2c3c(Nc4cccc(/C(C)=N\O)c4)[nH]c4ccccc4c-3c(N=O)c2c1` , give the reported TGI.
## Output > 100 µM

###

System: NCI-H226 lung
procedure_summary: NCI tumour cell line growth inhibition, 48 h
reported_endpoint: TGI

## Input Can you look up TGI on NCI-H226 lung for COC(=O)c1cc(C(=O)OC)c(CC(=O)C(=O)NC2C3CC4CC(C3)CC2C4)nc1CC(=O)C(=O)NC1C2CC3CC(C2)CC1C3 (stereo not given) ?
## Output > 100 µM

## Input `Cc1cc(Cl)nc2nc(Cl)c(N)cc12` , same question.
## Output 51.7 µM

## Input // repeat for COC(=O)N1CC(=O)C(C(=O)NC23CC4CC(CC(C4)C2)C3)C1 (stereo not given) and report
## Output > 100 µM

## Input Now this one: CCN(CC)CCCC(C)Nc1ccnc2cc(Cl)ccc12 (stereo not given)
## Output > 100 µM

## Input Next entry: `O=C1C(=O)N(c2ccc(Cl)cc2)C(=O)C(=O)C1c1nc2ccccc2o1`
## Output > 100 µM

###

The entries below are paired with their reported TGI.
Tested on: MALME-3M melanoma
procedure_summary: NCI tumour cell line growth inhibition, 48 h

| molecule | TGI |
| --- | --- |
| CSc1c(C2=C(c3cn(C)c4ccccc34)C(=O)NC2=O)c2ccccc2n1C | > 25 µM |
| COC(=O)c1ccccc1N(C(=O)c1ccccc1)c1ccccc1C | > 100 µM |
| C=CC(O)(CBr)CCC(Br)C(=C)C (stereo not given) | > 10 µM |
| C=C1C(=O)O[C@H]2[C@H]1CC/C(COC(=O)NCc1c[nH]c3ccccc13)=C\CC[C@@]1(C)O[C@@H]21 | 5.21 µM |
| COc1ccc(C2=NN(c3ccccc3)C[N+](c3ccc(C)cc3)=N2)cc1 | > 100 µM |
| CN(CCCCCl)P(=O)(OCCS(=O)(=O)CC(NC(=O)CCC(N)C(=O)O)C(=O)NC(C(=O)O)c1ccccc1)OCC1OC(n2ccc(N)nc2=O)C(O)C1O (stereo not given) | > 75 µM |

## Input Bench note: what TGI did `Clc1cccc(-c2sc(-c3ccsc3)cc2Cc2ccsc2)c1` show?
## Output > 10 µM

## Input Okay, and O=C(Nc1ccc(Cl)cc1C(F)(F)F)C(=O)C1CCCS1(=O)=O (stereo not given) ?
## Output > 100 µM

###

Tested on: NCI-H226 lung
procedure_summary: NCI tumour cell line growth inhibition, 48 h
Attribute: TGI

Some compounds with recorded TGI:
| compound | TGI |
| --- | --- |
| COc1ccc(/C(=N\NC(=O)NN)C(c2ccc(OC)cc2)C2(O)C(=O)Nc3c(Cl)cc(Cl)cc32)cc1 (stereo not drawn) | > 100 µM |
| Cc1cccc(Br)[n+]1[O-] | > 100 µM |

Here is another compound to look at.
## Input Quick check: TGI of `COc1cc(CSc2ccc(O)cc2)cc(OC)c1OC` ?
## Output > 100 µM

Source: PubChem BioAssay (NCI)
